system: HOP-62 NSCLC; experiment: NCI-60 one-dose screen, 48 h (100 = growth as untreated, 0 = no growth, -100 = all killed); settings: 10 µM unless noted
This is part of a sample that, as a whole, favours compounds with a hit. Of some 83,000 tested, about 20% had one in any assay.
Can you tell me growth for the items I'm about to list?
// note: answer is a bare numeric in %

For record `CC(C)(C)CC(C)(C)Nc1c(-c2c(O)c3ccccc3oc2=O)nc2sccn12` the listed growth is 85

Recorded growth (molecule `Cc1ccc(NC(=O)c2ccc(Nc3ncnc4c3cnn4-c3cccc(F)c3)cc2)cc1` ): 94.7

Lab book: growth of `COc1ccc(-c2cc(-c3ccc(Cl)cc3)c(C#N)c(=O)n2CCCCC(=O)NO)cc1` noted as 66.5

The value of growth measured for the molecule `CCOC(=O)/C(=C/c1ccc([N+](=O)[O-])cc1)C(=O)c1ccccc1` turned out to be 76.5

Given item `COc1cccc(NC(=O)c2sc3nc(C)c(C(=O)c4ccccc4)cc3c2N)c1` , the value recorded as its growth is 89.7

Data provenance: PubChem BioAssay (NCI)
